TARGET ENTITY: 5-HT1A receptors (UniProt P08908)
METHOD SUMMARY: 5-HT1A Functional Assay (cAMP inhibition, forskolin-stimulated adenylate cyclase)
EXPERIMENTAL PARAMETERS: read-out: cAMP Inhibition (EC50)
Structures can show the parent of a compound that is named as a salt.
PROPERTY MEASURED: EC50 (nM)
Quick reminder: number only, in nM, skip the unit.

Please give the measured EC50 for this compound: FC(F)(F)c1cccc(C2=CCN(CCc3ccc4ccccc4c3)CC2)c1 [SR-57746A, xaliproden hydrochloride]
3.7

----------
TARGET ENTITY: human cloned 5-HT1A receptors (Homo sapiens, UniProt P08908)
Construct: purchased NEN (manufactured by Biosignal, Inc., Montreal, Canada); host or cells: CHO cells
Sequence (P08908 whole entry): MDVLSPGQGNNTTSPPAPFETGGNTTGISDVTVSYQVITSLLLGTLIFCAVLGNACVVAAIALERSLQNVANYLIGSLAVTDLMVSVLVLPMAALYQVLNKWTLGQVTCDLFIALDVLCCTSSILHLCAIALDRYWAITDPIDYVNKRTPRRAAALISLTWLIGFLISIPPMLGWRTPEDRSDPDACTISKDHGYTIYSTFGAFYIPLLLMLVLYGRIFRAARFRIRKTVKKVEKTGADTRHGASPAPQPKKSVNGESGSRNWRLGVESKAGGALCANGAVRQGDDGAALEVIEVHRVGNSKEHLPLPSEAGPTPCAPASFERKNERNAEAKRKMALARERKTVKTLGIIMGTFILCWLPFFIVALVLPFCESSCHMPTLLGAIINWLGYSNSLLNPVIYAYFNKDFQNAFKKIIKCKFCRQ
METHOD SUMMARY: 5-HT1A Receptor Binding Assay ([3H]8-OH-DPAT, CHO cell membranes)
EXPERIMENTAL PARAMETERS: 0.25 nM [3H]8-OH-DPAT, 27° C., 1 h; read-out: Receptor Binding (IC50 nM, SEM)
Structures can show the parent of a compound that is named as a salt.
PROPERTY MEASURED: IC50 (nM)
Quick reminder: number only, in nM, skip the unit.

Please give the measured IC50 for this molecule: FC(F)(F)c1cccc(C2=CCN(CCc3ccc4ccccc4c3)CC2)c1 [SR-57746A, xaliproden hydrochloride]
2.5
